- target.of.assay: UniProt:P55210
- Sequence (P55210 24-198 limits assumed, species assumed): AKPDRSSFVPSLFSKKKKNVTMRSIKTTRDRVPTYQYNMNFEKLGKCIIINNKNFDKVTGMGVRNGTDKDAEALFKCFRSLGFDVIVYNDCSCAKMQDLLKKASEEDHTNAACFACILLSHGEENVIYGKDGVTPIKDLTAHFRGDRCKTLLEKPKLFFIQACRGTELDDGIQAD
- Sequence (P55210 207-303 limits assumed, species assumed): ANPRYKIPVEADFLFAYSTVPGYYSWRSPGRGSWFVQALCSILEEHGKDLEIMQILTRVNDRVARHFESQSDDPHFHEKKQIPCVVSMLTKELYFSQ
- measurement.protocol: Fluorescence enzyme assay, IC50 determination, Mch3
- Format: biochemical
- applied.conditions: Table 3; method of Preparation 3A; read-out: MCH3 I50
Please use True for IC50 under 4 µM and False for everything else, ties included.

>>> label_class("CC(C)C[C@H](NC(=O)COc1ccc2c(c1)CCCC2)C(=O)N[C@H](C=O)CC(=O)O")
"True"
>>> label_class("CC(C)C[C@H](NC(=O)CCOc1ccc2ccccc2c1)C(=O)N[C@H](C=O)CC(=O)O")
"False"
>>> label_class("CC(C)C[C@H](NC(=O)COc1ccccc1Cc1ccccc1)C(=O)N[C@H](C=O)CC(=O)O")
"True"
>>> label_class("CC(C)C[C@H](NC(=O)COc1cccc(-c2ccccc2)c1)C(=O)N[C@H](C=O)CC(=O)O")
"True"
>>> label_class("CC(C)C[C@H](NC(=O)COc1ccc(OCc2ccccc2)cc1)C(=O)N[C@H](C=O)CC(=O)O")
"False"
>>> label_class("CC(C)C[C@H](NC(=O)COc1cccc2cccnc12)C(=O)N[C@H](C=O)CC(=O)O")
"True"
>>> label_class("CC(C)C[C@H](NC(=O)CSc1ccc2ccccc2c1)C(=O)N[C@H](C=O)CC(=O)O")
"True"

---

- target.of.assay: MCH-5 (Homo sapiens)
- Sequence (Q14790 217-374 limits assumed, species assumed): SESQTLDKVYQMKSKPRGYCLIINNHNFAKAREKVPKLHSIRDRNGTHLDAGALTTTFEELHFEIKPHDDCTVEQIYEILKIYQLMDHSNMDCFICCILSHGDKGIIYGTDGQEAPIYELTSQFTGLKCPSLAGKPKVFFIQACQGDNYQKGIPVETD
- Sequence (Q14790 385-479 limits assumed, species assumed): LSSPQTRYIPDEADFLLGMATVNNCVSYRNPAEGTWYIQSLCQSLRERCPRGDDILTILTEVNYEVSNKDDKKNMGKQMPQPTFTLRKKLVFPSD
- measurement.protocol: Dissociation constant Ki and irreversible rate constant k3 for irreversible inhibitors, Mch5
- applied.conditions: continuous assay 60 min, reaction initiated by adding enzyme
pKi: −log10 of the molar value.
measurement.name: pKi

>>> observed_value("CC(C)[C@H](NC(=O)COc1cccc2ccccc12)C(=O)N[C@@H](CC(=O)O)C(=O)COc1cc(F)ccc1F")
6.12
>>> observed_value("CC(C)C[C@H](NC(=O)COc1c(C(=O)O)ccc2ccccc12)C(=O)N[C@@H](CC(=O)O)C(=O)COP(=O)(c1ccccc1)c1ccccc1")
7.55
>>> observed_value("Cc1nnc(SCC(=O)[C@H](CC(=O)O)NC(=O)[C@@H](NC(=O)COc2cccc3ccccc23)C(C)C)s1")
5.35

---

- target.of.assay: mICE (Mus musculus, UniProt P29452)
- Sequence (P29452 123-296 limits assumed): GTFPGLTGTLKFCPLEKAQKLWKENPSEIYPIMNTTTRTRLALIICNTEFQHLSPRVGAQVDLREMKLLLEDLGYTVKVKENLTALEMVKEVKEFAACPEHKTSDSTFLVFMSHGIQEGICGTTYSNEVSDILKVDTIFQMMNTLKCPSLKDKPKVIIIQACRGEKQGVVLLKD
- Sequence (P29452 315-402 limits assumed): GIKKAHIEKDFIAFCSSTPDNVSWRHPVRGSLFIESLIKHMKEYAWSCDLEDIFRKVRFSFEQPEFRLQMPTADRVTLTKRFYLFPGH
- measurement.protocol: Dissociation constant Ki and irreversible rate constant k3 for irreversible inhibitors, ICE
- Type: biochemical
- applied.conditions: continuous assay 60 min, reaction initiated by adding enzyme
measurement.name: mICE k3/Ki

>>> observed_value("CC(C)[C@H](NC(=O)COc1cccc2ccccc12)C(=O)N[C@@H](CC(=O)O)C(=O)COc1c(F)cccc1F")
"53,900 M^−1s^−1"
>>> observed_value("CC(C)C[C@H](NC(=O)COc1c(C(=O)O)ccc2ccccc12)C(=O)N[C@@H](CC(=O)O)C(=O)COC(=O)c1c(Cl)cccc1Cl")
"25,500 M^−1s^−1"
>>> observed_value("CC(C)[C@H](NC(=O)COc1ccccc1-c1ccccc1)C(=O)N[C@@H](CC(=O)O)C(=O)COc1c(F)cc(F)cc1F")
"29,600 M^−1s^−1"

---

- target.of.assay: MCH-5 (Homo sapiens)
- measurement.protocol: Dissociation constant Ki and irreversible rate constant k3 for irreversible inhibitors, Mch5
- applied.conditions: continuous assay 60 min, reaction initiated by adding enzyme
pKi: −log10 of the molar value.
# pKi >= 7 gives 1, anything below gives -1

>>> label_class("CC(C)[C@H](NC(=O)COc1cccc2ccccc12)C(=O)N[C@@H](CC(=O)O)C(=O)COc1cc(C(F)(F)F)nn1-c1ccccc1")
1
>>> label_class("CC(C)[C@H](NC(=O)COc1cccc2ccccc12)C(=O)N[C@@H](CC(=O)O)C(=O)COn1nnc2ccccc2c1=O")
1
>>> label_class("O=C(O)CC(NC(=O)[C@@H]1Cc2ccccc2N1C(=O)COc1cccc2ccccc12)C(=O)CF (stereo partly shown)")
-1
>>> label_class("CC(C)[C@H](NC(=O)COc1cccc2ccccc12)C(=O)N[C@@H](CC(=O)O)C(=O)COc1ccc(F)cc1")
-1
>>> label_class("CC(C)[C@H](NC(=O)CCOc1ccccc1)C(=O)N[C@@H](CC(=O)O)C(=O)COc1c(F)c(F)cc(F)c1F")
-1
